- targetEntity: T1, ALK7-Fc comprising protein
- T1 construct: It is probably the human protein
- T1 sequence (Q8NER5 22-113): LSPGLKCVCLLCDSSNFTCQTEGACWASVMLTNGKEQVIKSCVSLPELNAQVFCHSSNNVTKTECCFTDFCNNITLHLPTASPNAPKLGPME
- assay: SPR (Biacore T100/T200) at 25 °C, antibody captured on FAB chip, ALK7-Fc analyte, 1:1 fit
assayEndpoint: pKd
Keep in mind that pKd stands for -log10 of concentration in molar terms.

# annotated cases, reported pKd shown
{"binder": "J02 (antibody, V domains shown, also called mAb J02; ALK7 mAb J02) VH: EVQLLESGGGLVQPGGSLRLSCAASGFTFSVYAMSWVRQAPGKGLEWVSAISGSGDSTVYADSVKGRFTISRDNSKNTLYLQMNSLRAEDTAVYYCAKPSYQPIYWGQGTLVTVSS VL: DIQMTQSPSSVSASVGDRVTITCRASQGISSWLAWYQQKPGKAPKLLIYAASSLQSGVPSRFSGSGSGTDFTLTISSLQPEDFATYYCQQAASYPLTFGGGTKVEIK", "pKd": 8.27}
{"binder": "C03 (antibody, V domains shown, also called mAb C03; ALK7 mAb C03) VH: QLQLQESGPGLVKPSETLSLTCTVSGGSISSSAYYWAWIRQPPGKGLEWIGSIYLSGSTTYNPSLKSRVTISVDTSKNQFSLKLSSVTAADTAVYYCARDGRYQSRSPDYYYGMDVWGQGTTVTVSS VL: EIVLTQSPGTLSLSPGERATLSCKASQSVSSSYLAWYQQKPGQAPRLLIYGAFSRANGIPDRFSGSGSGTDFTLTISRLEPEDFAVYYCQQLVSYPFTFGGGTKVEIK", "pKd": 9.48}
{"binder": "G05 (antibody, V domains shown, also called mAb G05; ALK7 mAb G05) VH: QVQLVQSGAEVKKPGSSVKVSCKASGGTFSGQAISWVRQAPGQGLEWMGGIIPSFGTARYAQKFQGRVTITADESTSTAYMELSSLRSEDTAVYYCARTPYYDSSGYLDVWGQGTMVTVSS VL: DIQMTQSPSSLSASVGDRVTITCQASHDIDNYLNWYQQKPGKAPKLLIYYASNLKTGVPSRFSGSGSGTDFTFTISSLQPEDIATYYCQQSRASPPTFGGGTKVEIK", "pKd": 9.06}
{"binder": "K02 (antibody, V domains shown, also called mAb K02; KO2) VH: QVQLVQSGAEVKKPGSSVKVSCKASGGTFSSSAIGWVRQAPGQGLEWMGGIWPIFGTALYAQKFQGRVTITADESTSTAYMELSSLRSEDTAVYYCARDPREYIHVFDIWGQGTMVTVSS VL: DIQMTQSPSSLSASVGDRVTITCRASQSISSYLNWYQQKPGKAPKLLIYGASSLQSGVPSRFSGSGSGTDFTLTISSLQPEDFATYYCQQAYSFPWTFGGGIKVEIK", "pKd": 7.91}

Next up:
Value lookup for pKd; key = L02 (antibody, V domains shown, also called mAb L02) VH: QVQLVQSGAEVKKPGASVKVSCKASGYTFAGYNMHWVRQAPGQGLEWVGIINPNSGWTNYAQKFQGRVTMTRDTSVSAAYMELSRLRSDDTAVYYCARDPVGARYEVFDYWGQGTLVTVSS VL: EIVMTQSPATLSVSPGERATLSCRASQSVSSALAWYQQKPGQAPRLLIYSAFTRASGIPARFSGSGSGTEFTLTISSLQSEDFAVYYCQQAWAFPLTFGGGTKVEIK
9.36
